Each record here notes measured pIC50.
- assayed.system: hACSL5 (Homo sapiens (Human), UniProt Q9ULC5)
- assay.remarks: Cell-based assay (CBA) with B12FA in hACSL5-transfected Expi293F / FlpIn TRex293 cells
- stated.conditions: hACSL5-expressing cells
- Procedure: To assess the cell penetration and cellular activity of the compounds, a cell-based assay (CBA) was used to detect compound potency in living cells. […] A concentration-dependent, red-shifted fluorescence can be induced by the formation of BODIPY™ excimers in the oil droplets. […] FlpIn TRex293 cells transfected with hACSL5 plasmid were selected in culture medium containing 15 µg/ml Blasticidin and 150 µg/ml Hygromycin. […] The percentage of inhibition was calculated as: […]
- Sequence (Q9ULC5 whole entry): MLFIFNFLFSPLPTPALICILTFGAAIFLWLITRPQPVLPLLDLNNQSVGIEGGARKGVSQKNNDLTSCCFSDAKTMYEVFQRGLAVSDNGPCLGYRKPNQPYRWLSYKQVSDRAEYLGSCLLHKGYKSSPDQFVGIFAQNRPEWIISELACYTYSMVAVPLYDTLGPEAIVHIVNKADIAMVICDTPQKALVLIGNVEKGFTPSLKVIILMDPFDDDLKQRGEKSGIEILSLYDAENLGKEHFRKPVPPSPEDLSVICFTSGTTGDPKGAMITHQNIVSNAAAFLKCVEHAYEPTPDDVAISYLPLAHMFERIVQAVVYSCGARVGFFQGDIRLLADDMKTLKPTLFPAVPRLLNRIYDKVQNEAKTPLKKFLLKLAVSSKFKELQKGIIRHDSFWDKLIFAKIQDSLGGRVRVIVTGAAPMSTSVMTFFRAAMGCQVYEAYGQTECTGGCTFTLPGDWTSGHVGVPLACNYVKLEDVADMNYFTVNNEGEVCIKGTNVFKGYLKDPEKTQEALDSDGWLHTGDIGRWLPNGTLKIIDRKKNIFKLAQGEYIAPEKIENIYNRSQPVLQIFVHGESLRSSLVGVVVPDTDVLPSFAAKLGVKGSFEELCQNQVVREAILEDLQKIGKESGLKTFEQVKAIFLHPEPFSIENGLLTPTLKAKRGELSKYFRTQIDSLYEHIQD
pIC50: −log10 of the molar value.

In [3]: df
Out[3]:
                                   compound  readout_type        result
0  CC[C@@H](Oc1ccc(C(=O)NS(=O)(=O)c2ccc(NC3CCN(C(C)C)CC3)nc2)c(F)c1F)c1ccc(OCC2CC2)cn1         pIC50        < 6.30
1  CC[C@@H](Oc1ccc(C(=O)NS(=O)(=O)c2ccc(OC3CCCN(C)C3)cc2)c(F)c1F)c1ccc(Oc2ccccn2)cn1 (stereo partly drawn)         pIC50        > 7.00
2  CC[C@@H](Oc1ccc(C(=O)NS(=O)(=O)N2CCN(C(C)C)CC2)c(F)c1F)c1ccc(OCC2CC2)cn1         pIC50  6.30 to 7.00
3  CC[C@@H](Oc1ccc(C(=O)NS(=O)(=O)N2CCN(C)C(C)(C)C2)c(F)c1F)c1ccc(OCC2CC2)cn1         pIC50        > 7.00
4  CC[C@@H](Oc1ccc(C(=O)NS(=O)(=O)c2ccc(OC3CCN(C)CC3)cc2)c(F)c1F)c1cc(OCC2CC2)ccn1         pIC50  6.30 to 7.00

Problem: Which pIC50 value is on record for CC[C@@H](Oc1ccc(C(=O)NS(=O)(=O)c2ccc(O[C@H]3CCN(C)C3)cc2)c(F)c1F)c1ccc(OCC2CC2)cn1 ?
Solution: 6.30 to 7.00

Problem: Now give it for CC[C@@H](Oc1ccc(C(=O)NS(=O)(=O)c2ccc(CN3CCN(CC)CC3)nc2)c(F)c1F)c1ccc(OCC2CC2)cn1 too.
Solution: < 6.30

Problem: Also, CC[C@@H](Oc1ccc(C(=O)NS(=O)(=O)N2CCN(CC(C)(C)O)CC2)c(F)c1F)c1ccc(OCC2CC2)cn1 please.
Solution: 6.30 to 7.00

Problem: Entry to check: CC[C@@H](Oc1ccc(C(=O)NS(=O)(=O)c2ccc(OCCN(C)C)cc2)c(F)c1F)c1ccc(OCC2CC2)cn1
Solution: 6.30 to 7.00

Problem: And what about the compound CC[C@@H](Oc1ccc(C(=O)NS(=O)(=O)N2CCC(OC3CCN(C)CC3)CC2)c(F)c1F)c1ccc(Oc2ccccn2)cn1 ?
Solution: > 7.00

Problem: # repeat for CC[C@@H](Oc1ccc(C(=O)NS(=O)(=O)N2CCN(C)CC2)cc1C(F)(F)F)c1ccc(OC2CC(OC)C2)cn1 (stereo partly drawn)
Solution: 6.30 to 7.00

Problem: Then this compound: CC[C@@H](Oc1ccc(C(=O)NS(=O)(=O)c2ccc(OCCN(C)C)cc2)c(F)c1F)c1cc(OCC2CC2)ccn1
Solution: 6.30 to 7.00

Problem: Please answer likewise for CC[C@@H](Oc1ccc(C(=O)NS(=O)(=O)c2ccc(OC3CCCN(C)C3)cc2)c(F)c1F)c1ccc(OCC2CC2)cn1 (stereo partly drawn)
Solution: > 7.00

Problem: Also need CC[C@@H](Oc1ccc(C(=O)NS(=O)(=O)c2ccc(OC3CCN(CC(F)F)CC3)cc2)c(F)c1F)c1ccc(OCC2CC2)cn1 , thanks.
Solution: 6.30 to 7.00

Problem: Note, next up: CC[C@@H](Oc1ccc(C(=O)NS(=O)(=O)N2CCN(C3CCC3)CC2)c(F)c1F)c1ccc(OCC2CC2)cn1
Solution: > 7.00

====

- assayed.system: UniProt Q9ULC5
- assay.remarks: Cell-based assay (CBA) with B12FA in hACSL5-transfected Expi293F / FlpIn TRex293 cells
- stated.conditions: hACSL5-expressing cells
- Procedure: To assess the cell penetration and cellular activity of the compounds, a cell-based assay (CBA) was used to detect compound potency in living cells. […] A concentration-dependent, red-shifted fluorescence can be induced by the formation of BODIPY™ excimers in the oil droplets. […] FlpIn TRex293 cells transfected with hACSL5 plasmid were selected in culture medium containing 15 µg/ml Blasticidin and 150 µg/ml Hygromycin. […] The percentage of inhibition was calculated as: […]
pIC50: −log10 of the molar value.
readout.type: pIC50

Known pIC50 results, listed for orientation:
                                   compound  readout_type        result
0  CC[C@@H](Oc1ccc(C(=O)NS(=O)(=O)N2CCC(OC3CCN(C)CC3)CC2)c(F)c1F)c1cccc(OCC2CC2)c1         pIC50  6.30 to 7.00
1  CC[C@@H](Oc1ccc(C(=O)NS(=O)(=O)N2CCN(C)CC2)c(F)c1F)c1ccc(OC2CC(OC)C2)cn1 (some centres unmarked)         pIC50  6.30 to 7.00

Now for a further compound.
Problem: Form field: reported pIC50 of CC[C@@H](Oc1ccc(C(=O)NS(=O)(=O)N2CCN(C)CC2)cc1C(F)(F)F)c1ccc(Oc2ccccn2)cn1
Solution: > 7.00

====

- assayed.system: hACSL5 (Homo sapiens (Human), UniProt Q9ULC5)
- assay.remarks: Human ACSL5 coupled enzyme Amplex Red assay
- Assay type: biochemical
- stated.conditions: read-out: hACSL5 IC50
- Sequence (Q9ULC5 33-683): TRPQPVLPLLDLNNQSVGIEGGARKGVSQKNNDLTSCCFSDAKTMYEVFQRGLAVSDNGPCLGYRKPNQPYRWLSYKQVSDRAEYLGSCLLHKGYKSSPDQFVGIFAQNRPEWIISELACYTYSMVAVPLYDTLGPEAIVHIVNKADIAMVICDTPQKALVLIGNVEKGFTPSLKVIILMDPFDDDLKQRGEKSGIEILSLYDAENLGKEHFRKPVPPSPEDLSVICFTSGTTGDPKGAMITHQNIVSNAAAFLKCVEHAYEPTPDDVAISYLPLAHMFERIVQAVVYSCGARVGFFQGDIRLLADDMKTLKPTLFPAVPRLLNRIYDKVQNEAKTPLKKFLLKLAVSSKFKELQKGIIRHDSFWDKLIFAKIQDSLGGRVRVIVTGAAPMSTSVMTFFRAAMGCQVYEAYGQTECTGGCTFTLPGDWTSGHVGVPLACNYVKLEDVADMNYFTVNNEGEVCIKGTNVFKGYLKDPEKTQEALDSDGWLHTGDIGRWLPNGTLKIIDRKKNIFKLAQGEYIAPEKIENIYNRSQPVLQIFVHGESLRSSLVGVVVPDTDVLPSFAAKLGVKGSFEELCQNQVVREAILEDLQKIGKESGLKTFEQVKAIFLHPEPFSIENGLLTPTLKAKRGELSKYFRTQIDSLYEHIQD
pIC50: −log10 of the molar value.
readout.type: pIC50

Known results for compounds:
                                   compound  readout_type        result
0  CC[C@@H](Oc1ccc(C(=O)NS(=O)(=O)N2CCN(C3CCCCC3)CC2)c(F)c1F)c1ccc(OCC2CC2)cn1         pIC50        > 7.00
1  CC[C@@H](Oc1ccc(C(=O)NS(=O)(=O)c2ccc(O[C@@H]3CCCN(C)C3)cc2)c(F)c1F)c1ccc(OCC2CC2)cn1         pIC50  6.30 to 7.00
2  CC[C@@H](Oc1ccc(C(=O)NS(=O)(=O)N2CCC(OC3CCN(C)CC3)CC2)c(F)c1F)c1ccc(OC2CC(OC)C2)cn1 (stereo partly shown)         pIC50        > 7.00

For the next question, use this compound.
Problem: Report pIC50 for Cc1cc(C(=O)NS(=O)(=O)c2ccc(CN)cc2)ccc1OC(C)c1cccc(Oc2ccccc2)c1 (racemic) please.
Solution: > 7.00

====

- assayed.system: UniProtKB Q9ULC5
- assay.remarks: Cell-based assay (CBA) with B12FA in hACSL5-transfected Expi293F / FlpIn TRex293 cells
- stated.conditions: hACSL5-expressing cells
pIC50: −log10 of the molar value.
readout.type: pIC50

>>> df
                            chemical_smiles    assayed_system        result
0  CC[C@@H](Oc1ccc(C(=O)NS(=O)(=O)c2ccc(OC3CN(C)C3)cc2)c(F)c1F)c1ccc(OCC2CC2)cn1  UniProtKB Q9ULC5  6.30 to 7.00

Problem: Fill in: pIC50 of CC[C@@H](Oc1ccc(C(=O)NS(=O)(=O)c2ccc(OCCNC3CC3)cc2)c(F)c1F)c1ccc(OCC2CC2)cn1 is ___
Solution: > 7.00

Problem: Query CC[C@@H](Oc1ccc(C(=O)NS(=O)(=O)c2ccc(OCCNC3COC3)cc2)c(F)c1F)c1ccc(OCC2CC2)cn1 next
Solution: 6.30 to 7.00

Problem: Also CC[C@@H](Oc1ccc(C(=O)NS(=O)(=O)N2CCN(C3CC3)CC2)c(F)c1F)c1ccc(OCC2CC2)cn1 ?
Solution: > 7.00

Problem: Moving on to CC[C@@H](Oc1ccc(C(=O)NS(=O)(=O)N2C[C@H]3C[C@@H]2CN3C)c(F)c1F)c1ccc(OCC2CC2)cn1
Solution: 6.30 to 7.00

Problem: And then CC[C@@H](Oc1ccc(C(=O)NS(=O)(=O)N2CCN(C)CC2)cc1C(F)(F)F)c1ccc(OCC2CC2)cn1 , what is it?
Solution: > 7.00

Problem: Another: CC[C@@H](Oc1ccc(C(=O)NS(=O)(=O)N2CCC(OC3CCN(C)CC3)CC2)cc1C(F)(F)F)c1ccc(Oc2ccccn2)cn1
Solution: > 7.00

====

- assayed.system: UniProt Q9ULC5
- assay.remarks: Cell-based assay (CBA) with B12FA in hACSL5-transfected Expi293F / FlpIn TRex293 cells
- stated.conditions: hACSL5-expressing cells
readout.type: IC50

>>> print(df.to_string())
                                   compound  readout_type         result
0  CC[C@@H](Oc1ccc(C(=O)NS(=O)(=O)c2ccc(OC3CCN(CC4CC4)CC3)cc2)c(F)c1F)c1ccc(OCC2CC2)cn1          IC50       < 100 nM
1  CC[C@@H](Oc1ccc(C(=O)NS(=O)(=O)c2ccc(OC3CCN(C)CC3)cn2)c(F)c1F)c1ccc(OCC2CC2)cn1          IC50       > 500 nM
2  CC[C@@H](Oc1ccc(C(=O)NS(=O)(=O)N2CCN(C3CCCC3)CC2)c(F)c1F)c1ccc(Oc2ccccn2)cn1          IC50  100 to 500 nM
3  CC[C@@H](Oc1ccc(C(=O)NS(=O)(=O)c2ccc(OCCN(C)C)cc2)cc1C(F)(F)F)c1ccc(OCC2CC2)cn1          IC50  100 to 500 nM
4  CC[C@@H](Oc1ccc(C(=O)NS(=O)(=O)N2CCN(C)[C@@H](C)C2)c(F)c1F)c1ccc(Oc2ccccn2)cn1          IC50       < 100 nM

Problem: Requested field: IC50. Item: C[C@@H](Oc1ccc(C(=O)NS(=O)(=O)N2CCC(OC3CCN(C)CC3)CC2)cc1C(F)(F)F)c1ccc(Oc2ccccn2)cn1
Solution: < 100 nM

Problem: Similarly, CC[C@@H](Oc1ccc(C(=O)NS(=O)(=O)N2CC3(CC(OCCN4CCCC4)C3)C2)c(F)c1F)c1ccc(OCC2CC2)cn1 ?
Solution: > 500 nM

Problem: Queued: CC[C@@H](Oc1ccc(C(=O)NS(=O)(=O)c2ccc(OCCn3ccnc3)cc2)c(F)c1F)c1ccc(OCCOC)cn1
Solution: > 500 nM

Problem: What do you have for CC[C@@H](Oc1ccc(C(=O)NS(=O)(=O)N2CCC(OC3CCN(C)CC3)CC2)cc1C(F)(F)F)c1ccc(OCC2CC2)cn1 ?
Solution: < 100 nM

Problem: Consider next the compound CC[C@@H](Oc1ccc(C(=O)NS(=O)(=O)c2ccc(OC3CCN(C(C)C)CC3)nc2)c(F)c1F)c1ccc(OCC2CC2)cn1 in the same way.
Solution: 100 to 500 nM

Problem: Then this compound: CC(Oc1ccc(C(=O)NS(=O)(=O)c2cnn(CCN(C)C)c2)c(F)c1F)c1cccc(OCC2CC2)c1 (stereo not drawn)
Solution: > 500 nM
